# target: recombinant guanylate cyclase reporter cell line (Rattus norvegicus, UniProt P19686+P20595)
# Construct: expressed in transfected cells
# test: Effect on a recombinant guanylate cyclase reporter cell line
# Assay type: cell-based
# test parameters: MEC = minimum effective concentration; in some cases means of individual determinations
// reported MEC for each item listed
Respond numerically; units are µM and should not be typed.

Look over these answered cases.
1. Cc1nc2c(cc1F)c(-c1nc3c(c(C(=O)NCC(C)(N)CC(F)F)n1)C(C)(C)C(=O)N3)nn2Cc1cccc(F)c1F (single isomer, unassigned) [Example 58]	1
2. Cc1nc2c(cc1F)c(-c1nc3c(c(C(N)=O)n1)C(C)(C)C(=O)N3)nn2Cc1c(F)ccc(F)c1F	0.2
3. CC1(C)C(=O)Nc2nc(-c3nn(Cc4ncccc4F)c4ncc(F)cc34)nc(C(=O)NC3CC3)c21	1
4. Cn1ccc(NC(=O)c2nc(-c3nn(Cc4ccccc4F)c4ncccc34)nc3c2C(C)(C)C(=O)N3)n1	0.3
5. CC1(C)C(=O)Nc2nc(-c3nn(Cc4ccccc4F)c4ncccc34)nc(C(=O)Nc3cncc(F)c3)c21	0.3

Need MEC, item CC1(C)C(=O)Nc2nc(-c3nn(Cc4ccccc4F)c4ncccc34)nc(C(=O)NC3CCOCC3)c21 1

Need MEC, item CC1(C)C(=O)Nc2nc(-c3nn(Cc4ccccc4F)c4ncccc34)nc(C(=O)Nc3cnccn3)c21 0.3

* * *

// reported MEC for each item listed
# target: recombinant guanylate cyclase reporter cell line (Rattus norvegicus, UniProt P19686+P20595)
# Construct: expressed in transfected cells
# Sequence (P19686 1-690): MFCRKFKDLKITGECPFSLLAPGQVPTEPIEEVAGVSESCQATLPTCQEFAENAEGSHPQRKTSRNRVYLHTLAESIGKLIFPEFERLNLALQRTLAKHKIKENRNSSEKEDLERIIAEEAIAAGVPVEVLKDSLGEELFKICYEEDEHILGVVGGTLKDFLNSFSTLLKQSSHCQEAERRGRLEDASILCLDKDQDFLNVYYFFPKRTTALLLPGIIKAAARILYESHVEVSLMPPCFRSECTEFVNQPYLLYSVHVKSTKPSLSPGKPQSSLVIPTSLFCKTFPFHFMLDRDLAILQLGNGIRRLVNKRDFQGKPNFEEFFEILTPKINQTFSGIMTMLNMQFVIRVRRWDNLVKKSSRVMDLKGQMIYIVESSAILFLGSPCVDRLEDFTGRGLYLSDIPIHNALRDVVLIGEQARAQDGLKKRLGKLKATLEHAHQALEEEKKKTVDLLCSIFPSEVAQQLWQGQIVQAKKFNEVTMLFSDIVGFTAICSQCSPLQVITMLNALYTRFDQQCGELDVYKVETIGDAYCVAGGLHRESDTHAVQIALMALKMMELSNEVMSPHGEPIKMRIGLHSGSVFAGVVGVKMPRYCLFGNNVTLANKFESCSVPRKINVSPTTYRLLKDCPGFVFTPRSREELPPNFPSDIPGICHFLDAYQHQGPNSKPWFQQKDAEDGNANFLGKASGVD
# Sequence (P20595 1-619): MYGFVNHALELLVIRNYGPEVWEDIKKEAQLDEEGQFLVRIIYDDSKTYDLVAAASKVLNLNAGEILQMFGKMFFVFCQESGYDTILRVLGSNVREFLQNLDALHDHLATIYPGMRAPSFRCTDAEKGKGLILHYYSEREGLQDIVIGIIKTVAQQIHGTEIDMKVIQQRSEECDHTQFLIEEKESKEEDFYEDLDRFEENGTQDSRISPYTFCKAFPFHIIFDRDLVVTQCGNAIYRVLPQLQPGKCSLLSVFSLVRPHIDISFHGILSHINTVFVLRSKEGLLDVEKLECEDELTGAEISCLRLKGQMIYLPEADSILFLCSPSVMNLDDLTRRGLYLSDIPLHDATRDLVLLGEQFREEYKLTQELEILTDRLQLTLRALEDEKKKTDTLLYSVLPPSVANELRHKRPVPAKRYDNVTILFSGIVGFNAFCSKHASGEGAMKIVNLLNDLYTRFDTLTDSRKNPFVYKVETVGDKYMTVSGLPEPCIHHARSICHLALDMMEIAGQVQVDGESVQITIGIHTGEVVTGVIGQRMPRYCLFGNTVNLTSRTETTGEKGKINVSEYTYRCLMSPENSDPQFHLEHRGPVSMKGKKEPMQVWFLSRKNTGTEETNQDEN
# test: Effect on a recombinant guanylate cyclase reporter cell line
# Assay type: cell-based
# test parameters: MEC = minimum effective concentration; in some cases means of individual determinations
Respond numerically; units are µM and should not be typed.

Look over these answered cases.
1. CC(C)(C)CNC(=O)c1nc(-c2nn(Cc3ccccc3F)c3ncccc23)nc2c1C(C)(C)C(=O)N2 [Example 102]	0.3
2. CC1(C)C(=O)Nc2nc(-c3nn(Cc4ccccc4F)c4ncccc34)nc(C(=O)NC3CC3)c21 [Example 24]	0.1
3. Cc1nc2c(cc1F)c(-c1nc3c(c(C(=O)N(C)CC4CC4)n1)C(C)(C)C(=O)N3)nn2Cc1cccc(F)c1F [Example 38]	0.01

// switching to the query compound
Need MEC, item CN(CCO)C(=O)c1nc(-c2nn(Cc3ccccc3F)c3ncccc23)nc2c1C(C)(C)C(=O)N2 [Example 120] 0.1

* * *

# target: human phosphodiesterase 5 (PDE 5) (Homo sapiens, UniProt O76074)
observable: pIC50
FYI, pIC50 means -log10 of a concentration in mol per litre.

Look over these answered cases.
1) CC1(C)C(=O)Nc2nc(-c3nn(Cc4ncccc4F)c4ncc(F)cc34)nc(C(N)=O)c21 [Example 8]	7.09
2) CC1(C(F)(F)F)C(=O)Nc2nc(-c3nn(Cc4ncccc4F)c4ncc(F)cc34)nc(C(N)=O)c21 (racemic) [Example 21]	6.64
3) CC(N)(CNC(=O)c1nc(-c2nn(Cc3ncccc3F)c3ncc(F)cc23)nc2c1C(C)(C)C(=O)N2)CC(F)F (single isomer, unassigned; enantiomer a) [Example 55]	6.72

Need pIC50, item CCCCNC(=O)c1nc(-c2nn(Cc3ccccc3F)c3ncccc23)nc2c1C(C)(C)C(=O)N2 [Example 121] 7.57

Need pIC50, item CC(C)(N)CNC(=O)c1nc(-c2nn(Cc3ccccc3F)c3ncc(F)cc23)nc2c1C(C)(C)C(=O)N2 [Example 30] 6.51

Need pIC50, item Cc1cccnc1NC(=O)c1nc(-c2nn(Cc3ccccc3F)c3ncccc23)nc2c1C(C)(C)C(=O)N2 [Example 113] 7.36

Need pIC50, item Cc1nc2c(cc1F)c(-c1nc3c(c(C(=O)N(C)CC4CC4)n1)C(C)(C)C(=O)N3)nn2Cc1cccc(F)c1F [Example 38] 6.11

Need pIC50, item CC(C)C(C)NC(=O)c1nc(-c2nn(Cc3ccccc3F)c3ncccc23)nc2c1C(C)(C)C(=O)N2 (racemic) [Example 133] 7.52

Need pIC50, item CNC(=O)c1nc(-c2nn(Cc3ccccc3F)c3ncccc23)nc2c1C(C)(C)C(=O)N2 [Example 86] 7.36

Need pIC50, item CC1(C)C(=O)Nc2nc(-c3nn(Cc4ccccc4F)c4ncccc34)nc(C(=O)NC3CCCC3)c21 [Example 126] 8.22

Need pIC50, item CC1(C)C(=O)Nc2nc(-c3nn(Cc4ccccc4F)c4ncccc34)nc(C(=O)NCC3CCCO3)c21 (racemic) [Example 130] 7.55

Need pIC50, item CC1(C)C(=O)Nc2nc(-c3nn(Cc4ccccc4F)c4ncccc34)nc(C(N)=O)c21 [Example 1] 7.70

Need pIC50, item CCCCCNC(=O)c1nc(-c2nn(Cc3ccccc3F)c3ncccc23)nc2c1C(C)(C)C(=O)N2 [Example 131] 7.42

Need pIC50, item CC1(C)C(=O)Nc2nc(-c3nn(Cc4ccccc4F)c4cc(Cl)ccc34)nc(C(=O)NCCC(F)(F)F)c21 [Example 45] 6.89

* * *

// reported MEC for each item listed
# target: recombinant guanylate cyclase reporter cell line (Rattus norvegicus, UniProt P19686+P20595)
# Construct: expressed in transfected cells
# test: Effect on a recombinant guanylate cyclase reporter cell line
# Assay type: cell-based
# test parameters: MEC = minimum effective concentration; in some cases means of individual determinations
Respond numerically; units are µM and should not be typed.

Need MEC, item CC1(C)C(=O)Nc2nc(-c3nn(Cc4ccccc4F)c4ncccc34)nc(C(=O)NCCF)c21 0.1

Need MEC, item COCCNC(=O)c1nc(-c2nn(Cc3cccc(F)c3F)c3nc(C)c(F)cc23)nc2c1C(C)(C)C(=O)N2 0.065

* * *

Reported log10(IC50) for target or system human phosphodiesterase 5 (PDE 5) (Homo sapiens, UniProt O76074), by entry.
// units: nM (pre-log); metric: IC50; scale: log10

Look over these answered cases.
1) CC1(C)C(=O)Nc2nc(-c3nn(Cc4ccccc4F)c4ncccc34)nc(C(=O)Nc3nnc[nH]3)c21	1.20
2) CC1(NC(=O)c2nc(-c3nn(Cc4ccccc4F)c4ncccc34)nc3c2C(C)(C)C(=O)N3)CCC1	0.91
3) Cc1nc2c(cc1F)c(-c1nc3c(c(C(=O)NCC(C)(N)CC(F)F)n1)C(C)(C)C(=O)N3)nn2Cc1cccc(F)c1F (single isomer, unassigned)	1.93

Need log10(IC50), item Cc1nnc(NC(=O)c2nc(-c3nn(Cc4ccccc4F)c4ncccc34)nc3c2C(C)(C)C(=O)N3)o1 2.23

Need log10(IC50), item CC1(C)C(=O)Nc2nc(-c3nn(Cc4ccccc4F)c4ncccc34)nc(C(=O)NCCO)c21 1.18

Need log10(IC50), item CC(C)CNC(=O)c1nc(-c2nn(Cc3ccccc3F)c3ncccc23)nc2c1C(C)(C)C(=O)N2 1.30

Need log10(IC50), item Cc1nc2c(cc1F)c(-c1nc3c(c(C(N)=O)n1)C(C)(C(F)(F)F)C(=O)N3)nn2Cc1ccccc1F (racemic) [Example 12] 2.11
